Catalogue of dH values
biological target: T1, monocyte chemo-attractant protein-1 (MCP-1) (Homo sapiens (Human)., UniProt P13500); assay: SPR; temperature dependence of KD, van't Hoff approximation; MCP-1 immobilised, scFv injected; conditions: both partners purified
T1 construct: MCP-1 (monocyte chemo-attractant protein-1), chemokine; synthetic gene optimised for E. coli in pET26b; Probably the mature human chemokine, as in PDB 2BDN; also called monocyte chemotactic protein-1; antigen; source: E. coli Rosetta2 (DE3), purified (Ni-NTA, SEC)
Provide the reading as a plain figure in kcal/mol.

binder="11K2 scFv mutein L-N31R (scFv, V domains shown, PDB 2BDN heavy chain; PDB 2BDN light chain) with the stated change; also called L-D31R (printed once in the results)) VH: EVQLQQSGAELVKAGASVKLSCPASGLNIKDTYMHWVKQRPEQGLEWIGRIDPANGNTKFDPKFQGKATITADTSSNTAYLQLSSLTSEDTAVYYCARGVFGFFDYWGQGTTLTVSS VL: DIQMTQSSSSFSVSLGDRVTITCKATEDIYRRLAWYQQKPGSAPRLLISGATSLETGVPSRFSGSGSGKDYTLSITSLQTEDVATYYCQQFWSAPYTFGGGTKLEIK" reported_endpoint=dH scale_unit=kcal/mol reading=-25.6

Req: // query dH value for entry 11K2 scFv mutein L-S53D (scFv, V domains shown, PDB 2BDN heavy chain; PDB 2BDN light chain) with the stated change) VH: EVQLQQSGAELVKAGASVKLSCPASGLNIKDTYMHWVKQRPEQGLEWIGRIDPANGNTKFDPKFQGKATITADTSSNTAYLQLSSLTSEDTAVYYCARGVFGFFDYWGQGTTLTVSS VL: DIQMTQSSSSFSVSLGDRVTITCKATEDIYNRLAWYQQKPGSAPRLLISGATDLETGVPSRFSGSGSGKDYTLSITSLQTEDVATYYCQQFWSAPYTFGGGTKLEIK
Resp: -13.3
